Each entry below carries its reported pKi.
- assayedSystem: purified PARP protein (Homo sapiens, UniProt P09874)
- Sequence (P09874 whole entry): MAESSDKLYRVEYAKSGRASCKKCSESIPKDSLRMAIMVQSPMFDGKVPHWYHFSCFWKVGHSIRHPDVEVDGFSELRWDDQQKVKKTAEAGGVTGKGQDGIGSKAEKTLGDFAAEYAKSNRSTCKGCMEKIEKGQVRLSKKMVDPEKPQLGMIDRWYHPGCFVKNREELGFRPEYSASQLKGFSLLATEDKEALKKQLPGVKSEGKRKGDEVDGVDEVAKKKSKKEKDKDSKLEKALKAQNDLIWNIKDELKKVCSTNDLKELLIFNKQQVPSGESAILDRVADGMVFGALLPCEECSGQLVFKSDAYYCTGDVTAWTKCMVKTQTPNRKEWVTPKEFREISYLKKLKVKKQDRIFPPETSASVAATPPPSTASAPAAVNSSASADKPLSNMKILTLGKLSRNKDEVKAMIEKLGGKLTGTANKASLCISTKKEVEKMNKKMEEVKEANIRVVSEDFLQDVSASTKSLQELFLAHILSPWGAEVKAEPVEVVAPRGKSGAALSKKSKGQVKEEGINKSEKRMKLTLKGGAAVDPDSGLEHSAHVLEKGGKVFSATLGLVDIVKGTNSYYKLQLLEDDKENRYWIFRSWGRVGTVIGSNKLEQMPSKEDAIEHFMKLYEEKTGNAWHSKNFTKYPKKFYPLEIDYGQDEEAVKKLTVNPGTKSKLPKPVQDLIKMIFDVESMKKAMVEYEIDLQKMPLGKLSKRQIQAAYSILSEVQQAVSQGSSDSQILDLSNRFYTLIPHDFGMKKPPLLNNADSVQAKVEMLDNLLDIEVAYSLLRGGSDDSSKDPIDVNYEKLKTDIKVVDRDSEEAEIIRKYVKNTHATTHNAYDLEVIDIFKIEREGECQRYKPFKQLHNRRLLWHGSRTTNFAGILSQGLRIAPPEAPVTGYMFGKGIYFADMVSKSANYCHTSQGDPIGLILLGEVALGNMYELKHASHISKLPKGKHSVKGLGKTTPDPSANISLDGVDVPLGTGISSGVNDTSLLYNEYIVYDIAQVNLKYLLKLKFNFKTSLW
- experimentSummary: PARP enzyme inhibition assay
- Format: biochemical
- runConditions: [32P]NAD+ incorporation, 500 μM NAD+, 25° C.; two values in a cell = tested twice; read-out: Inhibition Constant Ki
On this scale, pKi is minus log10 of a concentration expressed in M (mol/L).

Here is how some compounds turned out for pKi.
> print(dat)
                                   compound                             assayedsystem  experimentalvalue
1   O=C1NCCc2c(-c3cccc(Cl)c3)[nH]c3cccc1c23  purified PARP protein (Homo sapiens, UniProt P09874)               8.28
2  O=C(Nc1ccc2ccccc2c1)c1[nH]c2cccc3c2c1CCNC3=O  purified PARP protein (Homo sapiens, UniProt P09874)               7.80
3      Nc1cccc(-c2[nH]c3cccc4c3c2CCNC4=O)c1  purified PARP protein (Homo sapiens, UniProt P09874)               8.16
4     O=C1NCCc2c(-c3ccccc3Cl)[nH]c3cccc1c23  purified PARP protein (Homo sapiens, UniProt P09874)               8.08

Log: purified PARP protein (Homo sapiens, UniProt P09874), compound O=C1NCCc2c(-c3ccc(-c4ccccc4)cc3)[nH]c3cccc1c23 , pKi = 8.00

Log: purified PARP protein (Homo sapiens, UniProt P09874), compound O=C1NCCc2c(-c3ccc(CN4CCCC4)cc3)[nH]c3cc(F)cc1c23 , pKi = 8.36

----------
- Test system: A549 cells
- experimentSummary: Cytotoxicity potentiation assay (topotecan)
- Type: cell-based
- runConditions: test compound at 0.4 μM, ratio of IC50 of topotecan alone to IC50 of topotecan with test compound
Each entry below carries its reported Cytotoxicity Potentiation PF50.
Enter a number only.

Here is how some compounds turned out for Cytotoxicity Potentiation PF50.
> print(dat)
                                   compound                   assayendpoint  experimentalvalue
1  O=C1NN=C(c2ccccc2)c2c[nH]c3cccc1c23 [Compound 28]  Cytotoxicity Potentiation PF50                  1
2  CNCc1cccc(-c2[nH]c3cc(F)cc4c3c2CCNC4=O)c1 [HHHH]  Cytotoxicity Potentiation PF50                1.9
3  CNCc1ccc(-c2[nH]c3cccc4c3c2CCNC4=O)cc1 [OO]  Cytotoxicity Potentiation PF50                2.4
4  CNCc1ccc(-c2[nH]c3cc(F)cc4c3c2CCNC4=O)cc1 [IIII]  Cytotoxicity Potentiation PF50                2.6
5  O=C1NCCc2c(-c3ccc(CCN4CCCC4)cc3)[nH]c3cccc1c23 [MMM]  Cytotoxicity Potentiation PF50                2.3

Lab note: measured Cytotoxicity Potentiation PF50 of O=C1NCCc2c(-c3cccc(Oc4ccc(F)cc4)c3)[nH]c3cccc1c23 [UU] was 1.8

Lab note: measured Cytotoxicity Potentiation PF50 of CN(C)Cc1cccc(-c2[nH]c3cccc4c3c2CCNC4=O)c1 [Compound 22] was 2.3

----------
Each entry below carries its reported melting point.

Here is how some compounds turned out for melting point.
> print(dat)
                                   compound  experimentalvalue
1        C#CCNC(=O)c1[nH]c2cccc3c2c1CCNC3=O      191 to 192 °C
2   O=C1NCCc2c(-c3ccc(Cl)cc3)[nH]c3cccc1c23      250 to 252 °C
3  O=C1NCCc2c(-c3cccc4ccccc34)[nH]c3cccc1c23      305 °C (dec.)
4  O=C1NCCc2c(-c3ccc4ccccc4c3)[nH]c3cccc1c23      261 to 262 °C
5        O=C1NCCc2c(-c3cccs3)[nH]c3cccc1c23  220.5 to 222.5 °C

Lab note: measured melting point of O=C1NCCc2c(-c3cccc(CN4CCCCC4)c3)[nH]c3cccc1c23 was 235 to 237 °C

Lab note: measured melting point of C[S+]([O-])c1ccc(-c2[nH]c3cccc4c3c2CCNC4=O)cc1 (centres unmarked) was 316 to 317 °C (dec.)

Lab note: measured melting point of O=C(O)c1[nH]c2cccc3c2c1CCNC3=O was 298 to 299 °C (dec.)

----------
Each entry below carries its reported melting point.

Here is how some compounds turned out for melting point.
> print(dat)
                                   compound     experimentalvalue
1  COc1ccc(Cl)cc1-c1[nH]c2cccc3c2c1CCNC3=O [SSS]         160 to 162 °C
2  O=C1NCCc2c(-c3ccc(CCN4CCCC4)cc3)[nH]c3cccc1c23 [MMM]  228 to 229 °C (dec.)
3  O=C1NCCc2c(-c3ccc(CN4CCCC4)c(F)c3)[nH]c3cccc1c23 [QQQ]  139 to 140 °C (dec.)

Lab note: measured melting point of N#Cc1[nH]c2cccc3c2c1CCNC3=O [EEE] was 315 °C (dec.)

Lab note: measured melting point of O=C1NCCc2c(-c3ccc(F)cc3F)[nH]c3cccc1c23 [Compound 39] was 196 to 197 °C

----------
Each entry below carries its reported pKi.
- assayedSystem: UniProtKB P09874
- experimentSummary: PARP enzyme inhibition assay
- Assay type: biochemical
- runConditions: [32P]NAD+ incorporation, 500 μM NAD+, 25° C.; two values in a cell = tested twice; read-out: Inhibition Constant Ki
On this scale, pKi is minus log10 of a concentration expressed in M (mol/L).

Here is how some compounds turned out for pKi.
> print(dat)
                          chemicalstructure  assayendpoint  experimentalvalue
1   O=C1NCCc2c(-c3ccccc3CCCO)[nH]c3cccc1c23            pKi               7.70
2    CNCc1cccc(-c2[nH]c3cccc4c3c2CCNC4=O)c1            pKi               8.28
3                 O=C1NN=Cc2c[nH]c3cccc1c23            pKi               8.47
4  O=C1NCCc2c(-c3ccc(C(F)(F)F)cc3)[nH]c3cccc1c23            pKi               8.30
5   O=C1NCCc2c(-c3ccc(CO)cc3)[nH]c3cccc1c23            pKi               8.24
6   O=C1NCCc2c(-c3ccc(Br)cc3)[nH]c3cccc1c23            pKi               8.41
7   O=C1NCCc2c(-c3ccc(F)cc3F)[nH]c3cccc1c23            pKi               8.32

Lab note: measured pKi of O=C1NCCc2c(-c3cc4ccccc4o3)[nH]c3cccc1c23 was 7.95

----------
- assayedSystem: UniProt P09874
- experimentSummary: PARP enzyme inhibition assay
- Format: biochemical
- runConditions: [32P]NAD+ incorporation, 500 μM NAD+, 25° C.; two values in a cell = tested twice; read-out: Inhibition Constant Ki
assayEndpoint: pKi
On this scale, pKi is minus log10 of a concentration expressed in M (mol/L).

> print(dat)
                                   molecule  assayendpoint  experimentalvalue
1  O=C1NCCc2c(-c3ccsc3)[nH]c3cccc1c23 [CCCC]            pKi               8.32
2  O=C1NCCc2c(I)[nH]c3cccc1c23 [Compound 43]            pKi               8.59
3  O=C1NCCc2c(-c3cccc(CCO)c3)[nH]c3cccc1c23 [ZZ]            pKi               8.01

For the next question, use this molecule.
Lab note: measured pKi of C[S+]([O-])c1ccc(-c2[nH]c3cccc4c3c2CCNC4=O)cc1 (centres unmarked) [FFFF] was 8.33

----------
Each entry below carries its reported Cytotoxicity Potentiation PF50.
- Tested on: A549 cells
- experimentSummary: Cytotoxicity potentiation assay (topotecan)
- Type: cell-based
- runConditions: test compound at 0.4 μM, ratio of IC50 of topotecan alone to IC50 of topotecan with test compound
Enter a number only.

Here is how some compounds turned out for Cytotoxicity Potentiation PF50.
> print(dat)
                                   compound  experimentalvalue
1  O=C1NCCc2c(-c3cccc(CO)c3)[nH]c3cccc1c23 [Compound 16]                1.9
2  O=C1NCCc2c(-c3cccc(CN4CCCC4)c3)[nH]c3cccc1c23 [TTTT]                1.6
3  O=C1NCCc2c(-c3cccc(C(F)(F)F)c3)[nH]c3cccc1c23 [Compound 30]                2.4
4  CN(C)Cc1ccc(-c2[nH]c3cccc4c3c2CNC4=O)cc1 [Compound 6]                2.2
5  CN(C)Cc1ccc(-c2[nH]c3cccc4c3c2CCNC4=O)cc1F [Compound PPP]                2.1

Lab note: measured Cytotoxicity Potentiation PF50 of C[N+](C)([O-])Cc1ccc(-c2[nH]c3cccc4c3c2CCNC4=O)cc1 [XXXX] was 1.7

Lab note: measured Cytotoxicity Potentiation PF50 of O=C(Nc1ccc(F)cc1)c1[nH]c2cccc3c2c1CCNC3=O [Compound YYY] was 1.5

Lab note: measured Cytotoxicity Potentiation PF50 of CNCc1cccc(-c2[nH]c3cccc4c3c2CCNC4=O)c1 [Compound PP] was 2.3

Lab note: measured Cytotoxicity Potentiation PF50 of CN(C)Cc1ccc(-c2[nH]c3cccc4c3c2CCNC4=O)cc1 [Compound 21] was 2.4

Lab note: measured Cytotoxicity Potentiation PF50 of O=C1NCCc2c(-c3ccc(Cl)cc3)[nH]c3cccc1c23 [GGG] was 1.9

Lab note: measured Cytotoxicity Potentiation PF50 of O=C1NCCc2c(-c3ccc(CN4CCOCC4)cc3)[nH]c3cccc1c23 [VVVV] was 2.1

Lab note: measured Cytotoxicity Potentiation PF50 of O=C1NCCc2c(-c3ccccc3)[nH]c3cccc1c23 [Compound 12] was 1.8

Lab note: measured Cytotoxicity Potentiation PF50 of O=C1NCCc2c(-c3ccc(CN4CCCC4)cc3)[nH]c3cc(F)cc1c23 [JJJJ] was 2.4

Lab note: measured Cytotoxicity Potentiation PF50 of O=C1NN=Cc2c[nH]c3cccc1c23 [Compound 27] was 1.3

Data provenance is patent US7429578B2.
